Measured values drawn from the supplement of paper PMC4862054 for this set.

tested on: MFM-223; assay: normalised viability (% of control), CellTiter-Blue; higher = more viable cells (about 100 = DMSO control); details: 10000 nM; incubation time: 72 h
value kind: normalised viability (%)
Form entry: value (%) — number only.

- structure string: "CO[C@@H](C(=O)N1Cc2[nH]nc(NC(=O)c3ccc(N4CCN(C)CC4)cc3)c2C1)c1ccccc1"
  normalised viability (%): 55.4
- structure string: "C[C@]12C=CC(=O)C=C1CC[C@@H]1[C@@H]2[C@@H](O)C[C@@]2(C)[C@H]1CC[C@]2(O)C(=O)CO"
  normalised viability (%): 96.9
- structure string: "Nc1ccccc1NC(=O)c1ccc(CNc2nccc(-c3cccnc3)n2)cc1"
  normalised viability (%): 31.6
- structure string: "CS(=O)(=O)N1CCN(Cc2cc3nc(-c4cccc5[nH]ncc45)nc(N4CCOCC4)c3s2)CC1"
  normalised viability (%): 13.1
- structure string: "COc1ccc(-c2cc3c(C)nc(N)nc3n([C@H]3CC[C@H](OCCO)CC3)c2=O)cn1"
  normalised viability (%): 7.1

input: Find normalised viability (MFM-223) for the entry `O=C(Nc1c[nH]nc1-c1nc2ccc(CN3CCOCC3)cc2[nH]1)NC1CC1`
output: 19

input: Check `O=C(NC[C@H](O)CO)c1ccncc1Nc1ccc(I)cc1F` too.
output: 52.2

----------
tested on: DU-4475; test: normalised response (% of control), CellTiter-Glo; higher = more viable cells (100 = DMSO, 0 = benzethonium chloride kill control); conditions: incubation time: 72 h
value kind: normalised response (%)
Form entry: value (%) — number only.

Sample answers from the record:
- compound: "CCC/C=C/C=C/C(=O)O[C@H]1/C(=C/C(=O)OC)C[C@H]2C[C@H]([C@@H](C)O)OC(=O)C[C@H](O)C[C@@H]3C[C@H](OC(C)=O)C(C)(C)[C@](O)(C[C@@H]4C/C(=C/C(=O)OC)C[C@H](/C=C/C(C)(C)[C@]1(O)O2)O4)O3 [Bryostatin 1] (0.1 nM)"
  normalised response, %: 97
- compound: "CO[C@@H](C(=O)N1Cc2[nH]nc(NC(=O)c3ccc(N4CCN(C)CC4)cc3)c2C1)c1ccccc1 [Danusertib] (10 nM)"
  normalised response, %: 102
- compound: "Cc1cccc(-c2nn3c(c2-c2ccnc4ccc(C(N)=O)cc24)CCC3)n1 [Galunisertib] (100 nM)"
  normalised response, %: 104
- compound: "COc1nc(N)nc2c1ncn2[C@@H]1O[C@H](CO)[C@@H](O)[C@@H]1O [Nelarabine] (1000 nM)"
  normalised response, %: 91.3
- compound: "CNC(=O)c1cc(Oc2ccc(NC(=O)Nc3ccc(Cl)c(C(F)(F)F)c3)cc2)ccn1 [Sorafenib] (0.1 nM)"
  normalised response, %: 101
- compound: "CC(=O)OC[C@H]1O[C@@H]([S-])[C@H](OC(C)=O)[C@@H](OC(C)=O)[C@@H]1OC(C)=O.CCP(CC)CC.[Au+] [Auranofin] (0.25 nM)"
  normalised response, %: 97.9

input: Quick check: normalised response of CCC/C=C/C=C/C(=O)O[C@H]1/C(=C/C(=O)OC)C[C@H]2C[C@H]([C@@H](C)O)OC(=O)C[C@H](O)C[C@@H]3C[C@H](OC(C)=O)C(C)(C)[C@](O)(C[C@@H]4C/C(=C/C(=O)OC)C[C@H](/C=C/C(C)(C)[C@]1(O)O2)O4)O3 [Bryostatin 1] (10 nM) ?
output: 93.7

input: Check O=C(NC[C@H](O)CO)c1ccncc1Nc1ccc(I)cc1F [Pimasertib] (10 nM) too.
output: 83.9

input: Check CC/C(=C(\c1ccc(O)cc1)c1ccc(OCCN(C)C)cc1)c1ccccc1 [4-hydroxytamoxifen] (1 nM) too.
output: 99.4

input: Check COc1ccc(-c2cc3c(C)nc(N)nc3n([C@H]3CC[C@H](OCCO)CC3)c2=O)cn1 (1 nM) too.
output: 90.7

input: Check C[C@]12O[C@H](C[C@]1(O)CO)n1c3ccccc3c3c4c(c5c6ccccc6n2c5c31)CNC4=O [Lestaurtinib] (100 nM) too.
output: 74.1

input: Check Cc1ccc(Nc2nccc(N(C)c3ccc4c(C)n(C)nc4c3)n2)cc1S(N)(=O)=O [Pazopanib] (1 nM) too.
output: 109

input: Check Cc1c(CN2CCN(C(=O)[C@H](C)O)CC2)sc2c(N3CCOCC3)nc(-c3cnc(N)nc3)nc12 [GDC-0980] (10 nM) too.
output: 101

----------
Listed below: normalised response values for each entry.
test system: MCF-10A; experiment: normalised response (% of control), CellTox Green; higher = less cell death (100 = DMSO, 0 = benzethonium chloride kill control); conditions: incubation time: 72 h
Please answer in the form of a number followed by its unit of measurement.

- compound: "COc1nc(N)nc2c1ncn2[C@@H]1O[C@H](CO)[C@@H](O)[C@@H]1O [Nelarabine] (1000 nM)"
  system name: "MCF-10A"
  recorded value: "98.8%"
- compound: "CCN(CC)CCNC(=O)c1c(C)[nH]c(/C=C2\\C(=O)Nc3ccc(F)cc32)c1C [Sunitinib] (10 nM)"
  system name: "MCF-10A"
  recorded value: "109%"
- compound: "C[C@]12O[C@H](C[C@]1(O)CO)n1c3ccccc3c3c4c(c5c6ccccc6n2c5c31)CNC4=O [Lestaurtinib] (1000 nM)"
  system name: "MCF-10A"
  recorded value: "66%"
- compound: "CNC(=O)c1cc(Oc2ccc(NC(=O)Nc3ccc(Cl)c(C(F)(F)F)c3)cc2)ccn1 [Sorafenib] (100 nM)"
  system name: "MCF-10A"
  recorded value: "99.8%"
- compound: "O=C1c2c(O)ccc(O)c2C(=O)c2c(NCCNCCO)ccc(NCCNCCO)c21 [Mitoxantrone] (10 nM)"
  system name: "MCF-10A"
  recorded value: "107%"

input: Quick check: normalised response of O=C(NC[C@H](O)CO)c1ccncc1Nc1ccc(I)cc1F [Pimasertib] (1000 nM) ?
output: 106%

input: Check Cn1cc(CNCC2CCN(c3ncc(C(=O)NO)cn3)CC2)c2ccccc21 [Quisinostat] (100 nM) too.
output: 97.8%

input: Check CC(=O)OC[C@H]1O[C@@H]([S-])[C@H](OC(C)=O)[C@@H](OC(C)=O)[C@@H]1OC(C)=O.CCP(CC)CC.[Au+] [Auranofin] (2500 nM) too.
output: 76.2%

input: Check Cc1nc(Nc2ncc(C(=O)Nc3c(C)cccc3Cl)s2)cc(N2CCN(CCO)CC2)n1 [Dasatinib] (10 nM) too.
output: 58.3%

input: Check COc1ccc(-c2cc3c(C)nc(N)nc3n([C@H]3CC[C@H](OCCO)CC3)c2=O)cn1 (1000 nM) too.
output: 93.2%

----------
tested on: MDA-MB-453; experiment: normalised response (% of control), CellTiter-Glo; higher = more viable cells (100 = DMSO, 0 = benzethonium chloride kill control); conditions: incubation time: 72 h
Listed below: normalised response values for each entry.
Form entry: value (%) — number only.

- compound: "Cn1cc(CNCC2CCN(c3ncc(C(=O)NO)cn3)CC2)c2ccccc21 [Quisinostat] (0.1 nM)"
  value kind: "normalised response"
  recorded value: 109
- compound: "CC[C@@]1(O)C(=O)OCc2c1cc1n(c2=O)Cc2cc3c(CN(C)C)c(O)ccc3nc2-1 [Topotecan] (1 nM)"
  value kind: "normalised response"
  recorded value: 103
- compound: "Cc1c(Cn2c(C)nc3c(C(=O)O)cc(N4CCOCC4)cc32)cccc1C(F)(F)F (1000 nM)"
  value kind: "normalised response"
  recorded value: 93.1
- compound: "c1cc(CN2CCCNCCNCCCNCC2)ccc1CN1CCCNCCNCCCNCC1 [Plerixafor] (1 nM)"
  value kind: "normalised response"
  recorded value: 87.1

input: Quick check: normalised response of O=C1c2c(O)ccc(O)c2C(=O)c2c(NCCNCCO)ccc(NCCNCCO)c21 [Mitoxantrone] (0.1 nM) ?
output: 99.3

input: Check Cn1cc(CNCC2CCN(c3ncc(C(=O)NO)cn3)CC2)c2ccccc21 [Quisinostat] (100 nM) too.
output: 2.02

input: Check Cc1nc(Nc2ncc(C(=O)Nc3c(C)cccc3Cl)s2)cc(N2CCN(CCO)CC2)n1 [Dasatinib] (1 nM) too.
output: 101

input: Check CCCCC/C=C/C=C1/C(=O)C=C[C@@H]1C/C=C\CCCC(=O)O [15D-PGJ2] (80 nM) too.
output: 96.8

----------
Listed below: normalised response values for each entry.
test system: CAL-120; test: normalised response (% of control), CellTiter-Glo; higher = more viable cells (100 = DMSO, 0 = benzethonium chloride kill control); conditions: incubation time: 72 h
Form entry: value (%) — number only.

- molecule: "Cc1nc(Nc2ncc(C(=O)Nc3c(C)cccc3Cl)s2)cc(N2CCN(CCO)CC2)n1 [Dasatinib] (1000 nM)"
  value kind: "normalised response"
  recorded value: 48.6
- molecule: "COc1nc(N)nc2c1ncn2[C@@H]1O[C@H](CO)[C@@H](O)[C@@H]1O [Nelarabine] (10000 nM)"
  value kind: "normalised response"
  recorded value: 98.6
- molecule: "CCC/C=C/C=C/C(=O)O[C@H]1/C(=C/C(=O)OC)C[C@H]2C[C@H]([C@@H](C)O)OC(=O)C[C@H](O)C[C@@H]3C[C@H](OC(C)=O)C(C)(C)[C@](O)(C[C@@H]4C/C(=C/C(=O)OC)C[C@H](/C=C/C(C)(C)[C@]1(O)O2)O4)O3 [Bryostatin 1] (100 nM)"
  value kind: "normalised response"
  recorded value: 104
- molecule: "C[C@]12O[C@H](C[C@]1(O)CO)n1c3ccccc3c3c4c(c5c6ccccc6n2c5c31)CNC4=O [Lestaurtinib] (1000 nM)"
  value kind: "normalised response"
  recorded value: 49.5

input: Quick check: normalised response of Cn1cc(CNCC2CCN(c3ncc(C(=O)NO)cn3)CC2)c2ccccc21 [Quisinostat] (1000 nM) ?
output: 10.8

input: Check O=C(NC[C@H](O)CO)c1ccncc1Nc1ccc(I)cc1F [Pimasertib] (10000 nM) too.
output: 65.4

input: Check Cc1ccc(Nc2nccc(N(C)c3ccc4c(C)n(C)nc4c3)n2)cc1S(N)(=O)=O [Pazopanib] (10000 nM) too.
output: 89.4

input: Check C[C@]12C=CC(=O)C=C1CC[C@@H]1[C@@H]2[C@@H](O)C[C@@]2(C)[C@H]1CC[C@]2(O)C(=O)CO [Prednisolone] (10000 nM) too.
output: 76.9

input: Check CC(=O)OC[C@H]1O[C@@H]([S-])[C@H](OC(C)=O)[C@@H](OC(C)=O)[C@@H]1OC(C)=O.CCP(CC)CC.[Au+] [Auranofin] (2500 nM) too.
output: 49.8

input: Check Nc1cccc2c1CN(C1CCC(=O)NC1=O)C2=O (stereo unspecified) [Lenalidomide] (10000 nM) too.
output: 93.6

input: Check CC/C(=C(\c1ccc(O)cc1)c1ccc(OCCN(C)C)cc1)c1ccccc1 [4-hydroxytamoxifen] (10000 nM) too.
output: 76.5
